system: BC2L-C-ct (Burkholderia cenocepacia)
Sequence (B4EH86 158-272): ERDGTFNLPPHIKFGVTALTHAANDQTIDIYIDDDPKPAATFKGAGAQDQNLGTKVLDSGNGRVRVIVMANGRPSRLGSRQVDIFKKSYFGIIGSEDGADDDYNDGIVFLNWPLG
protocol.description: Isothermal titration microcalorimetry, binding of saccharides to BC2L-C-ct
measurement.setup: ITC, 25°C, 20 mM Tris pH 7.5
Classify: t when n (stoichiometry) is strictly less than 0.5; f when n (stoichiometry) is not.

- molecule: "OC[C@H]1O[C@H](OC[C@H]2OC(O)[C@@H](O)[C@@H](O[C@H]3O[C@H](CO)[C@@H](O)[C@H](O)[C@@H]3O)[C@@H]2O)[C@@H](O)[C@@H](O)[C@@H]1O (some centres unmarked)"
  class.assignment: "t"
- molecule: "CO[C@H]1O[C@H]([C@@H](O)CO)[C@@H](O)[C@H](O)[C@@H]1O"
  class.assignment: "f"
- molecule: "C=CCO[C@H]1O[C@H]([C@@H](O)CO)[C@@H](O)[C@H](O[C@H]2O[C@H]([C@@H](O)CO)[C@@H](O)[C@H](O)[C@@H]2O)[C@@H]1O"
  class.assignment: "t"
- molecule: "COC1O[C@H](CO)[C@@H](O)[C@H](O)[C@@H]1O (stereo partly drawn) [αMeMan, α-methyl-mannoside]"
  class.assignment: "f"

* * *

Recorded pKd values for a group of compounds are listed next.
system: BC2L-C-ct (Burkholderia cenocepacia, UniProt B4EH86)
pKd: −log10 of the molar value.

- compound: "COC1O[C@H](CO)[C@@H](O)[C@H](O)[C@@H]1O (stereo partly drawn) [αMeMan, α-methyl-mannoside]"
  pKd: 4.56
- compound: "OC[C@H]1O[C@H](OC[C@H]2OC(O)[C@@H](O)[C@@H](O[C@H]3O[C@H](CO)[C@@H](O)[C@H](O)[C@@H]3O)[C@@H]2O)[C@@H](O)[C@@H](O)[C@@H]1O (stereo partly shown)"
  pKd: 4.54
- compound: "OC[C@H]1OC(O)[C@@H](O)[C@@H](O)[C@@H]1O (stereo partly shown)"
  pKd: 4.43
- compound: "CO[C@H]1O[C@H]([C@@H](O)CO)[C@@H](O)[C@H](O)[C@@H]1O"
  pKd: 3.82

* * *

Recorded -ΔH values for a group of compounds are listed next.
system: BC2L-C-ct (Burkholderia cenocepacia, UniProt B4EH86)
Sequence (B4EH86 158-272): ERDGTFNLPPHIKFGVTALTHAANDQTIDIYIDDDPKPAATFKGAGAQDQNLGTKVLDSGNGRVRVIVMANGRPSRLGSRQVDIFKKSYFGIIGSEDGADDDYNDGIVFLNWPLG
protocol.description: Isothermal titration microcalorimetry, binding of saccharides to BC2L-C-ct
measurement.setup: ITC, 25°C
value.kind: -ΔH (kcal/mol)

- compound: "OC[C@H]1OC(O)[C@@H](O)[C@@H](O)[C@@H]1O (stereo partly shown)"
  value.kind: "-ΔH"
  unit.label: "kcal/mol"
  endpoint.value: 13.6
- compound: "COC1O[C@H](CO)[C@@H](O)[C@H](O)[C@@H]1O (stereo partly drawn) [αMeMan, α-methyl-mannoside]"
  value.kind: "-ΔH"
  unit.label: "kcal/mol"
  endpoint.value: 13.1
- compound: "CO[C@H]1O[C@H]([C@@H](O)CO)[C@@H](O)[C@H](O)[C@@H]1O"
  value.kind: "-ΔH"
  unit.label: "kcal/mol"
  endpoint.value: 10.1
- compound: "OC[C@H]1O[C@H](OC[C@H]2OC(O)[C@@H](O)[C@@H](O[C@H]3O[C@H](CO)[C@@H](O)[C@H](O)[C@@H]3O)[C@@H]2O)[C@@H](O)[C@@H](O)[C@@H]1O (stereo partly shown)"
  value.kind: "-ΔH"
  unit.label: "kcal/mol"
  endpoint.value: 29.45
